# System: TK-10 renal
# TEST PROTOCOL: NCI tumour cell line growth inhibition, 48 h
The following molecules are shown together with reported TGI values.
OBSERVATION TYPE: TGI (µM)

1) CCOc1ccc(/C=C2\NC(=S)N(/C=C3\C(=O)Oc4ccccc4C3=O)C2=O)cc1 = 49.6
2) CC1(C)CC([P+](c2ccccc2)(c2ccccc2)c2ccccc2)=NN1 = 16.6
3) COc1c(Cl)ccc2c(-c3nc4cc(Cl)c(F)cc4s3)cc(=O)oc12 = 46.1
4) CC(C)C[C@H](NC(=O)CCn1ccc2ncccc2c1=O)B(O)O = 61.8
5) COC(=O)[C@]12CC[C@@H](C)[C@H](C)[C@@H]1C1=CC[C@@H]3[C@@]4(C)C(C=O)=C[C@@](C)(COS(C)(=O)=O)C4[C@H](O)C[C@@]3(C)[C@]1(C)CC2 (stereo partly specified) = 4.91

* * *

# Test system: ACHN renal
# TEST PROTOCOL: NCI tumour cell line growth inhibition, 48 h; in the data active = GI50 below about 0.43 µM; inactive = the rest
Outcome codes: t (active), f (inactive)

1. COc1ccc(-c2ccc(-c3ccc(C(=N)N)cn3)o2)cc1Cl = f
2. Clc1ccc(C2CC(c3cccc(Nc4ccncc4)c3)=NN2c2cc(Cl)cc(Cl)c2)cc1 (configuration not stated) = f
3. NCCCN1CCN(CCCNc2nc3ccccc3c3[nH]c4ccccc4c23)CC1 = t
4. O=C(COc1cccc(/C=C2\Oc3ccc4ccccc4c3C2=O)c1)c1ccc(Cl)cc1 = f
5. N#C/C(=C\c1c(-c2ccccc2)[nH]c2ccccc12)C(=O)c1ccccc1 = f
6. CC1[C@@H]2CC=C3[C@H]4CCC5Cc6nc7c(nc6C[C@@]5(C)C4(O)CC(=O)[C@]32CO[C@]12OC(C)(C)CC2O)CC1CC[C@@H]2C3=C[C@H]4O[C@@]5(O[C@@](C)(CO)C[C@@H]5O)C(C)[C@@]4(O)[C@]3(C)[C@@H](O)CC2[C@]1(C)C7 (some centres not stated) = t
7. Cc1ccc(Nc2cc(C)nc(NCCCNc3ccnc4cc(Cl)ccc34)n2)cc1 = f
8. COc1c(Cl)ccc2c(-c3nc4cc(Cl)c(F)cc4s3)cc(=O)oc12 = f
9. CCNNC(=O)[C@@H]1[C@H](c2cc(OC)c(OC)c(OC)c2)c2cc3c(cc2[C@H](O)[C@H]1CO)OCO3 = f
10. Cc1cc(N(CCCNc2ccnc3cc(Cl)ccc23)Cc2ccc3c(c2)OCO3)nc(N2CCCCC2)n1 = f
11. C=C1C(OC/C=C/COC2O[C@@H]3O[C@@]4(C)CC[C@H]5[C@H](C)CC[C@@H](C2=C)[C@@]35OO4)O[C@@H]2O[C@@]3(C)CC[C@H]4[C@H](C)CC[C@@H]1[C@@]24OO3 (some centres not stated) = f
12. O=S(=O)(NC1=NCCN1C(=S)SN1CCn2c1nsc2=S)c1ccccc1Cl = f
13. N#Cc1nc2c(S(=O)(=O)c3ccccc3)c(N)n(Cc3ccc(Cl)cc3)c2nc1C#N = f
14. CCCCCCCCCCCCCCCCCCOc1ccccc1CC(=O)NCC[N+](C)(C)C = f
15. O=c1oc2c3ccc4cnccc4c3[nH]c2c2ccccc12 = f
16. CC(C)C[C@H](NC(=O)CCn1ccc2ncccc2c1=O)B(O)O = f
17. Cc1nc2c(N3CCCC3)nc(N3CCNCC3)nc2nc1NCc1ccccc1 = f

Each recorded value in this set is attributed to PubChem BioAssay (NCI).
